# key: entry, value: log10 EC50
Target: T1, human GITR (amino acids M1-V241, NCBI Accession #NP_004186.1) expressed on cells (human, UniProt Q9Y5U5 26-241)
T1 construct: also called hGITR; hGITR/HEK293-D9
T1 sequence: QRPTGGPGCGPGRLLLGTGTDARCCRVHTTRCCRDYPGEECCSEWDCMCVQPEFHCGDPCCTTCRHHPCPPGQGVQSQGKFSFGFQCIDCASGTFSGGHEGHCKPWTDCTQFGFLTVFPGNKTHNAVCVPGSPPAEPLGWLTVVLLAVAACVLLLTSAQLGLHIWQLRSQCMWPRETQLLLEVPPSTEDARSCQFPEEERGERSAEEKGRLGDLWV
Assay: ECL cell binding, hGITR/HEK293-D9
Method: Nonspecific binding sites were blocked with 2% BSA (w/v)+PBS for 1 h at room temperature (RT). Next, serial dilutions of anti-GITR antibodies, ranging from 1.7 pM to 100 nM, were added to cells for 1 h at RT. Plates were then washed to remove unbound antibodies (AquaMax2000 plate washer, MSD Analytical Technologies) and plate-bound antibodies were detected with a SULFO-TAG™ conjugated anti-human kappa light chain IgG antibody (Jackson Immunoresearch) for 1 h at RT. […]
endpoint: log10 EC50 (log10 of the value in nM)

| binder | log10 EC50 |
| --- | --- |
| H4H14475P (antibody, human IgG4, V domains shown, human IgG4 (H4H)) VH: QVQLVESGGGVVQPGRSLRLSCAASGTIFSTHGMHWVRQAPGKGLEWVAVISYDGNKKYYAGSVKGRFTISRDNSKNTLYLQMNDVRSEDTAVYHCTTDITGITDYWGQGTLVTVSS VL: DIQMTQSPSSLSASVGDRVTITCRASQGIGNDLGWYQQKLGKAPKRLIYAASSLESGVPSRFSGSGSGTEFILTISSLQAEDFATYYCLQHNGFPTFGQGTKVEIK | 0.90 |
| H1H14495P (antibody, human IgG1, V domains shown, human IgG1 (H1H)) VH: QVQLVESGGGAVQPGTSLRLSCAASGFTFSSFGMHWVRQAPGKGLEWVSVIWYEGSNKYYADSVKGRFTISRDNSRNTLSLQMDSLRVEDTAVYYCARGGELGVNYYYDMDVWGQGTTVTVSS VL: DIQMTQSPSSLSASVGDRVTITCRASQDIKNDLGWFQQKAGKAPKRLFYATSSLQSGVPSRFSGSGSGTEFTLTISSLQPEDFATYYCLQVHSYPRTFGQGTKVEIK | -0.37 |
| H4H14516P (antibody, human IgG4, V domains shown, human IgG4 (H4H)) VH: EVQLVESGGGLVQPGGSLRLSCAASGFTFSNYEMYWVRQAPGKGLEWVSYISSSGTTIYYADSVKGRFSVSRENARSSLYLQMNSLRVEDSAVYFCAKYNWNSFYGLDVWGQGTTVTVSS VL: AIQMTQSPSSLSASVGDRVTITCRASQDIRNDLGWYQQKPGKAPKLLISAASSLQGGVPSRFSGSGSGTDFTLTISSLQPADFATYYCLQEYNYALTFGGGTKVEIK | -0.15 |
| H1H14523P (antibody, human IgG1, V domains shown, human IgG1 (H1H)) VH: QVQLVESGGGVVQPGRSLRLSCEASGFTFSSYGMHWVRQAPGKGLEWVAVIWYSESNKYYTDSMKGRLTISRDNSKNTLYLQMNSLRAEDTAVYYCARGGLLGKYYYYGMDVWGQGTTVTVSS VL: DIQMTQSPSSLSASVGDRVIITCRASQDIRNDLGWYQQKPGKAPKRLIYAASSLQSGVPSRFSGSGSGTEFTLTISSLQPEDFATFYCLQLNSYPYTFGQGTKLEIK | -0.40 |
| H1H14520P (antibody, human IgG1, V domains shown, human IgG1 (H1H)) VH: QVQLVESGGGVVQPGRSLRLSCAASGFTFSSFGMHWVRQAPGKGLEWVAVISYDGRNRYYADSVKGRFTISRDNSKNTLYLQMNSLSAEDTAMFYCAKDGFGNSFDYWGQGTLVTVSS VL: DVVMTQSPLSLPVTLGQPASISCRSSQSLLYSDGNTYLTWFQQRPGQSPRRLIYKVSNRDSGVPDRFSGSGSGTDFTLTISRVEAEDVGIYYCMQGTHWPWTFGQGTKVEIK | -0.62 |
